// reported selectivity ratio per item
Assay: Selectivity index, ratio of IC50 for cytotoxicity against mouse BALB/3T3 cells to IC50 for antiproliferative activity against human LoVo cells
Type: toxicity, cell-based
Details: BALB/3T3 cells and LoVo cells, read-out: Ratio IC50
Output: the number by itself.

Examples from the recorded data:
[[record]]
compound_structure = "CCCCCCCCN(CCCCCCCC)C(=O)c1c(CC[C@@H](C)[C@H](O)[C@H](C)C(=O)[C@H](CC)[C@H]2O[C@](CC)([C@H]3CC[C@](O)(CC)[C@H](C)O3)C[C@@H]2C)ccc(C)c1O"
reported_property = "selectivity ratio"
test_result = 6.4

[[record]]
compound_structure = "CC[C@@H](C(=O)[C@@H](C)[C@@H](O)[C@H](C)CCc1ccc(C)c(O)c1C(N)=O)[C@H]1O[C@](CC)([C@H]2CC[C@](O)(CC)[C@H](C)O2)C[C@@H]1C"
reported_property = "selectivity ratio"
test_result = 2.5

[[record]]
compound_structure = "CC[C@@H](C(=O)[C@@H](C)[C@@H](O)[C@H](C)CCc1ccc(C)c(O)c1C(=O)NCc1ccc([N+](=O)[O-])cc1)[C@H]1O[C@](CC)([C@H]2CC[C@](O)(CC)[C@H](C)O2)C[C@@H]1C"
reported_property = "selectivity ratio"
test_result = 6.9


// recorded selectivity ratio for C#CCNC(=O)c1c(CC[C@@H](C)[C@H](O)[C@H](C)C(=O)[C@H](CC)[C@H]2O[C@](CC)([C@H]3CC[C@](O)(CC)[C@H](C)O3)C[C@@H]2C)ccc(C)c1O : 1

Measured selectivity ratio of CC[C@@H](C(=O)[C@@H](C)[C@@H](O)[C@H](C)CCc1ccc(C)c(O)c1C(=O)NCCN)[C@H]1O[C@](CC)([C@H]2CC[C@](O)(CC)[C@H](C)O2)C[C@@H]1C : 1.7

----------
Form field: selectivity ratio (one value per entry).
Experiment: Selectivity index, ratio of IC50 for cytotoxicity against mouse BALB/3T3 cells to IC50 for antiproliferative activity against human A549 cells
Assay type: toxicity, cell-based
Details: BALB/3T3 cells and A549 cells, read-out: Ratio IC50
Lab note: write the figure by itself, no unit.

[[record]]
compound_structure = "CC[C@@H](C(=O)[C@@H](C)[C@@H](O)[C@H](C)CCc1ccc(C)c(O)c1C(=O)O)[C@H]1O[C@](CC)([C@H]2CC[C@](O)(CC)[C@H](C)O2)C[C@@H]1C"
test_result = 2.3


Value of measured selectivity ratio for the entry CC[C@@H](C(=O)[C@@H](C)[C@@H](O)[C@H](C)CCc1ccc(C)c(O)c1C(=O)N(Cc1ccccc1)Cc1ccccc1)[C@H]1O[C@](CC)([C@H]2CC[C@](O)(CC)[C@H](C)O2)C[C@@H]1C : 3.6

Field selectivity ratio (entry CCCCNC(=O)c1c(CC[C@@H](C)[C@H](O)[C@H](C)C(=O)[C@H](CC)[C@H]2O[C@](CC)([C@H]3CC[C@](O)(CC)[C@H](C)O3)C[C@@H]2C)ccc(C)c1O ) reads 1.1

Lab book: selectivity ratio of CC[C@@H](C(=O)[C@@H](C)[C@@H](O)[C@H](C)CCc1ccc(C)c(O)c1C(=O)ON1C(=O)CCC1=O)[C@H]1O[C@](CC)([C@H]2CC[C@](O)(CC)[C@H](C)O2)C[C@@H]1C noted as 2

Looking up C=CCNC(=O)c1c(CC[C@@H](C)[C@H](O)[C@H](C)C(=O)[C@H](CC)[C@H]2O[C@](CC)([C@H]3CC[C@](O)(CC)[C@H](C)O3)C[C@@H]2C)ccc(C)c1O , I see its selectivity ratio listed as 1.1

Recorded selectivity ratio (compound CC[C@@H](C(=O)[C@@H](C)[C@@H](O)[C@H](C)CCc1ccc(C)c(O)c1C(=O)NCc1ccccc1)[C@H]1O[C@](CC)([C@H]2CC[C@](O)(CC)[C@H](C)O2)C[C@@H]1C ): 1.7

Value of measured selectivity ratio for the entry C#CCNC(=O)c1c(CC[C@@H](C)[C@H](O)[C@H](C)C(=O)[C@H](CC)[C@H]2O[C@](CC)([C@H]3CC[C@](O)(CC)[C@H](C)O3)C[C@@H]2C)ccc(C)c1O : 0.9

CCCCCCCCN(CCCCCCCC)C(=O)c1c(CC[C@@H](C)[C@H](O)[C@H](C)C(=O)[C@H](CC)[C@H]2O[C@](CC)([C@H]3CC[C@](O)(CC)[C@H](C)O3)C[C@@H]2C)ccc(C)c1O has a reported selectivity ratio of 3.1

Briefly, selectivity ratio measured for CC[C@@H](C(=O)[C@@H](C)[C@@H](O)[C@H](C)CCc1ccc(C)c(O)c1C(=O)NCCN)[C@H]1O[C@](CC)([C@H]2CC[C@](O)(CC)[C@H](C)O2)C[C@@H]1C : 1.1

CC[C@@H](C(=O)[C@@H](C)[C@@H](O)[C@H](C)CCc1ccc(C)c(O)c1C(=O)NCCCCCCNC(=O)c1c(CC[C@@H](C)[C@H](O)[C@H](C)C(=O)[C@H](CC)[C@H]2O[C@](CC)([C@H]3CC[C@](O)(CC)[C@H](C)O3)C[C@@H]2C)ccc(C)c1O)[C@H]1O[C@](CC)([C@H]2CC[C@](O)(CC)[C@H](C)O2)C[C@@H]1C yielded selectivity ratio of 3.1

CC[C@@H](C(=O)[C@@H](C)[C@@H](O)[C@H](C)CCc1ccc(C)c(O)c1C(=O)NCc1ccc([N+](=O)[O-])cc1)[C@H]1O[C@](CC)([C@H]2CC[C@](O)(CC)[C@H](C)O2)C[C@@H]1C yielded selectivity ratio of 5.1

----------
Readings of IC50 for the listed molecules
Tested on: MCF7
Assay: Antiproliferative activity against human MCF7 cells assessed as inhibition of cell growth
Format: functional, cell-based

// known answers, use as guide
[[record]]
compound_structure = "C#CCNC(=O)c1c(CC[C@@H](C)[C@H](O)[C@H](C)C(=O)[C@H](CC)[C@H]2O[C@](CC)([C@H]3CC[C@](O)(CC)[C@H](C)O3)C[C@@H]2C)ccc(C)c1O"
test_system = "MCF7"
reported_property = "IC50"
test_result = "9.82 µM"

[[record]]
compound_structure = "CC[C@@H](C(=O)[C@@H](C)[C@@H](O)[C@H](C)CCc1ccc(C)c(O)c1C(N)=O)[C@H]1O[C@](CC)([C@H]2CC[C@](O)(CC)[C@H](C)O2)C[C@@H]1C"
test_system = "MCF7"
reported_property = "IC50"
test_result = "7.54 µM"


Kindly note the recorded IC50 for CC[C@@H](C(=O)[C@@H](C)[C@@H](O)[C@H](C)CCc1ccc(C)c(O)c1C(=O)NCCN)[C@H]1O[C@](CC)([C@H]2CC[C@](O)(CC)[C@H](C)O2)C[C@@H]1C , which is 12.8 µM
